molecular target: HLA-A*03:01; test: IEDB peptide-MHC binding, purified MHC/competitive/fluorescence; filed as Kd, often an IC50 or EC50 that approximates it; bounds were set here for any values at or beyond the usual limits of such assays; conditions: source organism: Campylobacter jejuni subsp. jejuni NCTC 11168 = ATCC 700819
readoutLabel: pKd
pKd is a log-scale quantity: -log10 of the concentration expressed in molar.

Consider "KGMKIQHFK" . Its measured pKd is 7.17

###

target: HLA-A*26:01; experiment: IEDB peptide-MHC binding, purified MHC/competitive/fluorescence; filed as Kd, often an IC50 or EC50 that approximates it; bounds were set here for any values at or beyond the usual limits of such assays; details: source organism: Entamoeba histolytica HM-1:IMSS
readoutLabel: Kd

Consider "YLHIHPFKI" . Its measured Kd is ≥ 20 µM

Sourced from the Immune Epitope Database (IEDB)
